Header: Ki / UniProt P35348 / multiple publications
Sequence (P35348 whole entry): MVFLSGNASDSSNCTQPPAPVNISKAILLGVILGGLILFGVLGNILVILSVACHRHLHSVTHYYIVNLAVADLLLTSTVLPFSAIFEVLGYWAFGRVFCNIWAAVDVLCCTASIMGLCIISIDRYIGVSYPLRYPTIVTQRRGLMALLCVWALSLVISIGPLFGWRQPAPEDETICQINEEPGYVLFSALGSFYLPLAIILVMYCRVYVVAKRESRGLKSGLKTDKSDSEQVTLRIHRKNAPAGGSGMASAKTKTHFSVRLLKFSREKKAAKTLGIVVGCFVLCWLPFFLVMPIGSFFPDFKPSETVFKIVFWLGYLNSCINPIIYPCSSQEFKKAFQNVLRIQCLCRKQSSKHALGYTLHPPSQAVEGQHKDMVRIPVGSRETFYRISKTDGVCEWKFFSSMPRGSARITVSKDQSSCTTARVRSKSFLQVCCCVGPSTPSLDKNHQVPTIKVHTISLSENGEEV
Return type: number; implicit unit nM.

Here is how some molecules turned out for Ki.
- MOLECULE: "Cc1ccc(C(C(=O)NCCCN2CCC(C#N)(c3ccccc3)CC2)c2ccc(C)cc2)cc1"
  TARGET_UNDER_TEST: "UniProt P35348"
  UNITS: "nM"
  QUANTITATIVE_RESULT: 7.3
- MOLECULE: "COc1ccccc1N1CCN(CCn2c(=O)[nH]c3scc(-c4ccccc4)c3c2=O)CC1"
  TARGET_UNDER_TEST: "UniProt P35348"
  UNITS: "nM"
  QUANTITATIVE_RESULT: 2.63
- MOLECULE: "COc1ccccc1N1CCN(CCNc2c(C(C)=O)c(-c3ccccc3)nn(C)c2=O)CC1"
  TARGET_UNDER_TEST: "UniProt P35348"
  UNITS: "nM"
  QUANTITATIVE_RESULT: 0.63
- MOLECULE: "COc1cccc(OC)c1OCCNC[C@@H]1COc2cc3c(cc2O1)CCCC3"
  TARGET_UNDER_TEST: "UniProt P35348"
  UNITS: "nM"
  QUANTITATIVE_RESULT: 100
- MOLECULE: "Cc1ccc(N2C(=O)c3ccc(C(=O)NC[C@H](O)CN4CCN(c5ccccc5OC(C)C)CC4)cc3C2=O)cc1"
  TARGET_UNDER_TEST: "UniProt P35348"
  UNITS: "nM"
  QUANTITATIVE_RESULT: 0.29
- MOLECULE: "O=C1CC2(CCCC2)CC(=O)N1CCN1CCN(c2ccccc2)CC1"
  TARGET_UNDER_TEST: "UniProt P35348"
  UNITS: "nM"
  QUANTITATIVE_RESULT: 3350
- MOLECULE: "CCC1=C(C(N)=O)C(c2ccc(F)cc2F)N(C(=O)NCCCN2CCN(c3ccccc3C(N)=O)CC2)C(=O)N1 (stereo not drawn)"
  TARGET_UNDER_TEST: "UniProt P35348"
  UNITS: "nM"
  QUANTITATIVE_RESULT: 1.3
- MOLECULE: "COC(=O)C1=C(C)NC(=O)N(C(=O)NCCCN2CCC(c3ccccc3)(c3ccccc3)CC2)C1c1ccc(F)c(F)c1 (stereo not drawn)"
  TARGET_UNDER_TEST: "UniProt P35348"
  UNITS: "nM"
  QUANTITATIVE_RESULT: 1.9

## Task Give Ki (UniProt P35348) of the following molecule: COc1ccc2cc[nH]c2c1OCCNC[C@H]1COc2ccccc2O1
## Result 178

## Task Next: Cc1c[nH]c(=O)n(CCCN2CCN(c3ccc(F)cc3OCC(F)(F)F)CC2)c1=O
## Result 1

## Task Entry to check: CC(C)Oc1ccccc1N1CCN(CCOC(=O)CN2CCCCC2=O)CC1
## Result 38

## Task Now the same for COc1ccccc1CCCNCC1COC(c2ccccc2)(c2ccccc2)O1 (racemic)
## Result 49
